Organism: Homo sapiens
Assay: Selectivity ratio of Ki for recombinant cathepsin-K (unknown origin) to Ki for recombinant cathepsin-L (unknown origin)
Peptide text beside a SMILES is read from it. * marks the point of attachment. Cbz = O=C(OCc1ccccc1)*
The label depends only on Ratio Ki: t if it is at least 200, f if it is smaller.

CC(C)C[C@H](NC(=O)OCc1ccccc1)C(=O)N[C@@H](Cc1ccccc1)C(=O)N[C@@H](CCCCN)C(N)=O (Cbz-Leu-Phe-Lys-NH2) :: t

Determine whether measured Ratio Ki meets or exceeds 200 for NCCCC[C@H](NC(=O)[C@H](Cc1ccccc1)NC(=O)[C@H](CCCCN)NC(=O)OCc1ccccc1)C(N)=O (Cbz-Lys-Phe-Lys-NH2)
t

Determine whether measured Ratio Ki meets or exceeds 200 for NCCCC[C@H](NC(=O)[C@H](Cc1ccccc1)NC(=O)[C@H](Cc1c[nH]c2ccccc12)NC(=O)OCc1ccccc1)C(N)=O (Cbz-Trp-Phe-Lys-NH2)
t

Determine whether measured Ratio Ki meets or exceeds 200 for NCCCC[C@H](NC(=O)[C@H](Cc1ccccc1)NC(=O)OCc1ccccc1)C(N)=O
f

====

Organism: Homo sapiens
Assay: Selectivity ratio of Ki for recombinant cathepsin-B (unknown origin) to Ki for recombinant cathepsin-L (unknown origin)
Peptide text beside a SMILES is read from it. * marks the point of attachment. Cbz = O=C(OCc1ccccc1)*
MEASUREMENT LABEL: Ratio Ki
Keep it simple and answer with nothing but the number.

See these solved cases before continuing.
NCCCC[C@H](NC(=O)[C@H](Cc1ccccc1)NC(=O)OCc1ccccc1)C(N)=O :: 810
CC(C)C[C@H](NC(=O)[C@H](Cc1ccccc1)NC(=O)OCc1ccccc1)C(N)=O (Cbz-Phe-Leu-NH2) :: 310
NCCC[C@H](NC(=O)[C@H](Cc1ccccc1)NC(=O)OCc1ccccc1)C(N)=O :: 703
NCCCC[C@H](NC(=O)[C@H](Cc1ccc(-c2cccc(N)c2)cc1)NC(=O)OCc1ccccc1)C(N)=O :: 21
NCCCC[C@H](NC(=O)[C@H](Cc1ccccc1)NC(=O)c1ccc(N)nc1)C(N)=O :: 30

Recall and state the measured Ratio Ki for CC(=O)Oc1cccc(C(=O)N[C@@H](Cc2ccccc2)C(=O)N[C@@H](CCCCN)C(N)=O)c1 .
425

Recall and state the measured Ratio Ki for CC(=O)Oc1ccc(C(=O)N[C@@H](Cc2ccccc2)C(=O)N[C@@H](CCCCN)C(N)=O)cc1 .
272

Recall and state the measured Ratio Ki for NCCCC[C@H](NC(=O)[C@H](Cc1ccccc1)NC(=O)CCc1ccc(O)cc1)C(N)=O .
54

====

The following compounds are shown together with reported log10(Ki) values.
Biological target: Cathepsin B (Homo sapiens)
Assay: Inhibition of recombinant cathepsin-B (unknown origin) using Z-Arg-Arg-AMC as substrate by fluorescence assay
Square brackets hold non-standard residues; d marks the D form. Peptide text beside a SMILES is read from it. * marks the point of attachment. Phe(4-NH2) = Nc1ccc(C[C@H](N)C(=O)O)cc1; Cbz = O=C(OCc1ccccc1)*
Note the log scale: values are log10 of Ki expressed in µM.

NCCCC[C@H](NC(=O)[C@H](Cc1ccccc1)NC(=O)c1c(F)c(F)c(F)c(F)c1F)C(N)=O :: 2.13
NCCCC[C@H](NC(=O)[C@H](Cc1ccc(-c2cccs2)cc1)NC(=O)OCc1ccccc1)C(N)=O :: 1.59
NCCCC[C@H](NC(=O)[C@H](Cc1ccccc1)NC(=O)C1=CCCC1)C(N)=O :: 2.79
NCCCC[C@H](NC(=O)[C@H](Cc1ccccc1)NC(=O)c1cc([N+](=O)[O-])ccc1Cl)C(N)=O :: 3.25
NCCCC[C@H](NC(=O)[C@H](Cc1ccccc1)NC(=O)[C@H](CCCCN)NC(=O)OCc1ccccc1)C(N)=O (Cbz-Lys-Phe-Lys-NH2) :: 3.17
Cc1cccc(-c2ccc(C[C@H](NC(=O)OCc3ccccc3)C(=O)N[C@@H](CCCCN)C(N)=O)cc2)c1 :: 2.59
CC(C)C[C@H](NC(=O)[C@H](Cc1ccccc1)NC(=O)OCc1ccccc1)C(N)=O (Cbz-Phe-Leu-NH2) :: 3.64
NCCCC[C@H](NC(=O)[C@H](Cc1ccc(-c2cccc(Cl)c2)cc1)NC(=O)OCc1ccccc1)C(N)=O :: 1.76

Recall and state the measured log10(Ki) for NCCCC[C@H](NC(=O)[C@H](Cc1ccccc1)NC(=O)c1ccc(N)nc1)C(N)=O .
2.17

Recall and state the measured log10(Ki) for NC(=O)[C@H](Cc1ccc(N)cc1)NC(=O)[C@H](Cc1ccccc1)NC(=O)OCc1ccccc1 (Cbz-Phe-[Phe(4-NH2)]-NH2) .
3.45

Recall and state the measured log10(Ki) for CNCCCC[C@H](NC(=O)[C@H](Cc1ccccc1)NC(=O)OCc1ccccc1)C(N)=O .
3.19

Recall and state the measured log10(Ki) for NCCCC[C@H](NC(=O)[C@H](Cc1ccc(-c2ccc(-c3ccccc3)cc2)cc1)NC(=O)OCc1ccccc1)C(N)=O .
1.87

Recall and state the measured log10(Ki) for NC(=O)[C@H](CCCC(N)O)NC(=O)[C@H](Cc1ccccc1)NC(=O)OCc1ccccc1 (stereo partly drawn) .
3.24

====

Target: Cathepsin B (Homo sapiens, UniProt P07858)
Experiment: Irreversible inhibition of recombinant cathepsin-B (unknown origin) using Z-Arg-Arg-AMC as substrate
MEASUREMENT LABEL: Ka (×10⁵ /s/M)
State the answer as a number, implicitly in ×10⁵ /s/M.

See these solved cases before continuing.
Cc1cccc(C)c1C(=O)OCC(=O)[C@H](CCCCN)NC(=O)[C@H](Cc1ccccc1)NC(=O)[C@H](CCCCN)NC(=O)OCc1ccccc1 :: 8.22
Cc1cccc(C)c1C(=O)OCC(=O)[C@H](CCCCN)NC(=O)[C@H](Cc1ccccc1)NC(=O)[C@H](CCCNC(=N)N)NC(=O)OCc1ccccc1 :: 0.76
Cc1cccc(C)c1C(=O)OCC(=O)[C@H](CCCCN)NC(=O)[C@H](Cc1ccccc1)NC(=O)OCc1ccccc1 :: 0.38
Cc1cccc(C)c1C(=O)OCC(=O)[C@H](CCCCN)NC(=O)[C@H](Cc1ccccc1)NC(=O)[C@H](CC(C)C)NC(=O)OCc1ccccc1 :: 1.36

Report measured Ka on Cathepsin B (Homo sapiens, UniProt P07858); entry: Cc1cccc(C)c1C(=O)OCC(=O)[C@H](CCCCN)NC(=O)[C@H](Cc1ccccc1)NC(=O)[C@H](Cc1c[nH]c2ccccc12)NC(=O)OCc1ccccc1
0.57

====

Species on record: Homo sapiens
Assay: Selectivity ratio of Ki for recombinant cathepsin-B (unknown origin) to Ki for recombinant cathepsin-L (unknown origin)
Peptide text beside a SMILES is read from it. * marks the point of attachment. Cbz = O=C(OCc1ccccc1)*
Output yes for records whose Ratio Ki is lower than 200, no for records at or above 200.

These recorded examples may help you get a feel for the data.
NCCCC[C@H](NC(=O)[C@H](Cc1c[nH]c2ccccc12)NC(=O)OCc1ccccc1)C(N)=O (Cbz-Trp-Lys-NH2) :: yes
CC(C)C[C@H](NC(=O)OCc1ccccc1)C(=O)N[C@@H](Cc1ccccc1)C(=O)N[C@@H](CCCCN)C(N)=O (Cbz-Leu-Phe-Lys-NH2) :: no
CNCCCC[C@H](NC(=O)[C@H](Cc1ccccc1)NC(=O)OCc1ccccc1)C(N)=O :: no
NCCCC[C@H](NC(=O)[C@H](Cc1c[nH]cn1)NC(=O)OCc1ccccc1)C(N)=O (Cbz-His-Lys-NH2) :: yes
NCCCC[C@H](NC(=O)[C@H](Cc1ccccc1)NC(=O)c1ccc2ccccc2c1)C(N)=O :: no
N=C(N)NCCC[C@H](NC(=O)OCc1ccccc1)C(=O)N[C@@H](Cc1ccccc1)C(=O)N[C@@H](CCCCN)C(N)=O (Cbz-Arg-Phe-Lys-NH2) :: no

// switching to the query compound
Regarding Cc1cccc(C)c1C(=O)N[C@@H](Cc1ccccc1)C(=O)N[C@@H](CCCCN)C(N)=O , kindly confirm whether its Ratio Ki is beneath 200.
yes

====

The following molecules are shown together with reported Ki values.
Biological target: Cathepsin B (Homo sapiens, UniProt P07858)
Test: Inhibition of recombinant cathepsin-B (unknown origin) using Z-Arg-Arg-AMC as substrate by fluorescence assay
Peptide text beside a SMILES is read from it. * marks the point of attachment. Cbz = O=C(OCc1ccccc1)*
State the answer as a number, implicitly in µM.

NCCCC[C@H](NC(=O)[C@H](Cc1ccccc1)NC(=O)c1ccc(Br)cc1)C(N)=O :: 261

Report measured Ki on Cathepsin B (Homo sapiens, UniProt P07858); entry: N=C(N)NCCC[C@H](NC(=O)[C@H](Cc1ccccc1)NC(=O)OCc1ccccc1)C(N)=O (Cbz-Phe-Arg-NH2)
349

Report measured Ki on Cathepsin B (Homo sapiens, UniProt P07858); entry: NCCCC[C@H](NC(=O)[C@H](Cc1ccccc1)NC(=O)[C@H](Cc1c[nH]c2ccccc12)NC(=O)OCc1ccccc1)C(N)=O (Cbz-Trp-Phe-Lys-NH2)
835

Report measured Ki on Cathepsin B (Homo sapiens, UniProt P07858); entry: CC(C)(C)c1ccc(C(=O)N[C@@H](Cc2ccccc2)C(=O)N[C@@H](CCCCN)C(N)=O)cc1
312
